As shown below, each of these compounds has a reported Rate of moisture absorption value.
methodDescription: Hygroscopicity test (25° C., humidity 75%, 24 h)
Format: physicochemical
conditionDescription: 1 g sample, temperature of 25° C., humidity of 75%, disodium salt
Just the number please, in %, no unit attached.

Recorded Rate of moisture absorption, per entry:
1. O=C(O)c1cc(C(=O)O)c2c(n1)C(=O)C(=O)c1cc(C(=O)O)[nH]c1-2.[Na].[Na] [Crystal form III, pyrroloquinoline quinone disodium salt] ... 0
2. O=C(O)c1cc(C(=O)O)c2c(n1)C(=O)C(=O)c1cc(C(=O)O)[nH]c1-2.[Na].[Na] [Crystal form of the disodium salt in CN201080031945] [pyrroloquinoline quinone disodium salt, reference compound] ... 0.85
3. O=C(O)c1cc(C(=O)O)c2c(n1)C(=O)C(=O)c1cc(C(=O)O)[nH]c1-2.[Na].[Na] [Crystal form II, pyrroloquinoline quinone disodium salt] ... 0.30

The record that follows has no Rate of moisture absorption shown yet.
Rate of moisture absorption for O=C(O)c1cc(C(=O)O)c2c(n1)C(=O)C(=O)c1cc(C(=O)O)[nH]c1-2.[Na].[Na] [Crystal form I, pyrroloquinoline quinone disodium salt] is 0
